measuredTarget: cell surface-expressed H3N2 WN/05 HA trimer (influenza A virus A/Wisconsin/67/2005 (H3N2))
methodNotes: cell-based or functional assay
reportedProperty: IC50 of pseudo virus neutralization H3N2 WN/05

q: So what does the record say about IC50 of pseudo virus neutralization H3N2 WN/05 for S10 (antibody, V domains shown) VH: EVQLVESGGGLVQPGGSLRLSCAASGFTIGGYGIHWVRQAPGKGLEWVASIGPSWGFTFYADSVKGRFTISADTSKNTAYLQMNSLRAEDTAVYYCARFNWVINGVTDYWGQGTLVTVSS VL: DIQMTQSPSSLSASVGDRVTITCRASQDVSYYVAWYQQKPGKAPKLLIFWSTFLYSGVPSRFSGSGSGTDFTLTISSLQPEDFATYYCQQYYDSPMTFGQGTKVEIKR ?
a: > 20 µg/mL

q: And the next one, P14 (antibody, V domains shown) VH: EVQLVESGGGLVQPGGSLRLSCAASGFTIGDFGIHWVRQAPGKGLEWVAGIWPFGGYTYYADSVKGRFTISADTSKNTAYLQMNSLRAEDTAVYYCARFVNWDGDYMDYWGQGTLVTVSS VL: DIQMTQSPSSLSASVGDRVTITCRASQDVGFYVAWYQQKPGKAPKLLISWSSYLYSGVPSRFSGSGSGTDFTLTISSLQPEDFATYYCQQYYNYPLTFGQGTKVEIKR ?
a: > 20 µg/mL

q: And then P44 (antibody, V domains shown) VH: EVQLVESGGGLVQPGGSLRLSCAASGFTIDGWWIHWVRQAPGKGLEWVAGIWPFGGFTSYADSVKGRFTISADTSKNTAYLQMNSLRAEDTAVYYCARSYSGYSGDYWGQGTLVTVSS VL: DIQMTQSPSSLSASVGDRVTITCRASQDVNNNVAWYQQKPGKAPKLLIYWSSSLYSGVPSRFSGSGSGTDFTLTISSLQPEDFATYYCQQYYNFPVTFGQGTKVEIKR , what is it?
a: > 20 µg/mL
